Exercise: state measured Displacement for each of the molecules provided.
Target: UniProtKB P29275
Sequence (whole entry): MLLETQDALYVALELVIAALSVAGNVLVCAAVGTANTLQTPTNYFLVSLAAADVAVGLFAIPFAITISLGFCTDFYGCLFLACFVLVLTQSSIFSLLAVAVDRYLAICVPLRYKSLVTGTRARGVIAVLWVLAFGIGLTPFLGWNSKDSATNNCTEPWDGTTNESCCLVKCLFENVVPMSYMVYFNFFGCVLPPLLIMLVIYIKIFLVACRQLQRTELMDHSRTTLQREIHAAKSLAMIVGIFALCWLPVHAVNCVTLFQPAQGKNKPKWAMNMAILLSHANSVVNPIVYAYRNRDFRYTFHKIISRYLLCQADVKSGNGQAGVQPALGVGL
Assay: In vitro binding affinity towards human adenosine A2B receptor by [3H]DPCPX displacement at 10 uM.
Give the number first and the unit second.

**Query** Entry "NC(=O)/N=N/Nc1nc(N)c2ncn([C@@H]3O[C@H](CO)[C@@H](O)[C@H]3O)c2n1" has what Displacement?
**Result** 9%

**Query** Entry "O=C(N/N=N/c1nc(NC2CCCC2)c2ncn([C@@H]3O[C@H](CO)[C@@H](O)[C@H]3O)c2n1)Nc1ccccc1" has what Displacement?
**Result** 10%

**Query** Entry "COc1ccccc1NC(=O)/N=N/Nc1nc(N)c2ncn([C@@H]3O[C@H](CO)[C@@H](O)[C@H]3O)c2n1" has what Displacement?
**Result** 18%

**Query** Entry "Nc1nc(/N=N/NC(=O)Nc2nccs2)nc2c1ncn2[C@@H]1O[C@H](CO)[C@@H](O)[C@H]1O" has what Displacement?
**Result** 79%
